- TESTED_ON: IDO1-expressing HEK293 cell clones (Homo sapiens, UniProt P14902)
- Construct: expressed in transfected cells; host or cells: HEK293
- Sequence (P14902 whole entry): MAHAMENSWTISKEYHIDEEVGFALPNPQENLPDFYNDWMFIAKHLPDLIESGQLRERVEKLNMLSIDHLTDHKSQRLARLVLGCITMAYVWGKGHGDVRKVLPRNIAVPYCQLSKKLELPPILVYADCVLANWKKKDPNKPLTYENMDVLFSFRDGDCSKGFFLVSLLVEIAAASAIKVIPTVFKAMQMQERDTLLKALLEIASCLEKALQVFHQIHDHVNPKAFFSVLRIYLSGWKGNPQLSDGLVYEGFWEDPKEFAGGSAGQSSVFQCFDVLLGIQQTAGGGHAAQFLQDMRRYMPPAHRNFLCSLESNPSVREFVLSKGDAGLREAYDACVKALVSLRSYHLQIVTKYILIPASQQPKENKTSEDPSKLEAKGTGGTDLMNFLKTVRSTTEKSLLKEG
- ASSAY_SUMMARY: Cell based kynurenine assay, IDO1-expressing HEK293 cell clones
- RECORDED_CONDITIONS: HEK293 cells, 24 hours of incubation, geometric mean; read-out: HEK293 IDO1 Kynurenine GMean IC50 (μM) (Cellular Assay)
Quick reference for IC50 among some molecules

Reported IC50 for CCNC(=O)N1CCC(C(C)(C)C(O)c2cc(Cl)cc3[nH]ncc23)CC1 (stereo not shown) [Compound P-0076] was 0.0001 to 10 µM

Please fill in: IC50 reported for CC(C)(C1CCN(C(=O)NOCC(F)(F)F)CC1)[C@H](O)c1cc(Cl)cc2cn[nH]c12 [Compound P-0065] = 0.0001 to 10 µM

Reported IC50 of CC(C)(C1CCN(C(=O)NCc2ncccn2)CC1)[C@H](O)c1cc(Cl)cc2cn[nH]c12 [Compound P-0027] : 0.0001 to 10 µM

molecule CC(C)(C1CCN(C(=O)Nc2ccc(F)cc2F)CC1)C(O)c1cc(Cl)cc2[nH]ncc12 (stereo not shown) [Compound P-0082] , IC50 observed: > 10 µM

Sure, the documented IC50 for [2H]C([2H])([2H])C(C1CCN(C(=O)CO)CC1)(C(O)c1cc(Cl)cc2cn[nH]c12)C([2H])([2H])[2H] (stereo not shown) [Compound P-0143] is 0.0001 to 10 µM

Entry CN(C)CCONC(=O)N1CCC(C(C)(C)[C@H](O)c2cc(Cl)cc3cn[nH]c23)CC1 [Compound P-0063] ; IC50 = 0.0001 to 10 µM

So, CCS(=O)(=O)N1CCC(C(C)(C)[C@H](O)c2cc(Cl)cc3[nH]ncc23)CC1 [Compound P-0147] ? Its IC50 was > 10 µM

Documented IC50 of CC(C)(C1CCN(C(=O)N[C@H]2CCOC2)CC1)C(O)c1cc(Cl)cc2[nH]ncc12 (stereo partly shown) [Compound P-0114] : 0.0001 to 10 µM

New cases:
Consider OC1(c2cc(Cl)cc3cn[nH]c23)CC(C2CC2)(C2CC2)C1 [Compound P-0108] . Its measured IC50 is 0.0001 to 10 µM

Reported IC50 for CCONC(=O)N1CCC(C(C)(C)[C@H](O)c2cc(Cl)cc3cn[nH]c23)CC1 [Compound P-0121] was 0.0001 to 10 µM

Form: molecule = CCCC(=O)N1CCC(C(C)(C)C(O)c2cc(Cl)cc3[nH]ncc23)CC1 (stereo not shown) [Compound P-0045] ; IC50 = 0.0001 to 10 µM

Looking up CC(C)(C1CCN(C(=O)NCc2ccncc2)CC1)[C@H](O)c1cc(Cl)cc2cn[nH]c12 [Compound P-0019] , I see its IC50 listed as 0.0001 to 10 µM

# molecule CC(C)(C1CCN(C(=O)NCC2COC2)CC1)[C@H](O)c1cc(Cl)cc2cn[nH]c12 [Compound P-0023] ; its IC50 = 0.0001 to 10 µM

// sample CONC(=O)N1CCC(C(C)(C)C(O)c2cc(Cl)cc3[nH]ncc23)CC1 (stereo not shown) [Compound P-0093] , its IC50 was > 10 µM

Record COCCNC(=O)N1CCC(C(C)(C)C(O)c2cc(Cl)cc3[nH]ncc23)CC1 (stereo not shown) [Compound P-0083] . Reported IC50: 0.0001 to 10 µM

Please fill in: IC50 reported for CCS(=O)(=O)N1CCC(C(C)(C)C(O)c2cc(Cl)cc3[nH]ncc23)CC1 (stereo not shown) [Compound P-0072] = > 10 µM

In plain terms, CNCC(=O)N1CCC(C(C)(C)[C@H](O)c2cc(Cl)cc3cn[nH]c23)CC1 [Compound P-0128] has a documented IC50 of 0.0001 to 10 µM

---

Listed below: IC50 values for each entry.
- TESTED_ON: IDO1-expressing HEK293 cell clones (Homo sapiens, UniProt P14902)
- Construct: expressed in transfected cells; host or cells: HEK293
- ASSAY_SUMMARY: Cell based kynurenine assay, IDO1-expressing HEK293 cell clones
- RECORDED_CONDITIONS: HEK293 cells, 24 hours of incubation, geometric mean; read-out: HEK293 IDO1 Kynurenine GMean IC50 (μM) (Cellular Assay)

Note to self: IC50 recorded for CC(C)(C1CCN(C(=O)NCC2(O)CCC2)CC1)[C@H](O)c1cc(Cl)cc2cn[nH]c12 [Compound P-0029] was 0.0001 to 10 µM

The compound listed as O=C(NCCC(F)(F)F)N1CCC(C(F)(F)C(=O)c2c(F)c(Cl)cc3cn[nH]c23)CC1 [Compound P-0039] shows IC50 equal to 0.0001 to 10 µM

Per the records, this compound ( CCCNC(=O)N1CCC(C(C)(C)C(O)c2cc(Cl)cc3[nH]ncc23)CC1 (centres unmarked) [Compound P-0077] ) has IC50 equal to 0.0001 to 10 µM

IC50 reading for CC(C)(C1CCN(C(=O)Nc2cccnc2)CC1)C(O)c1cc(Cl)cc2[nH]ncc12 (centres unmarked) [Compound P-0075] : > 10 µM

Just so you know, measured IC50 for CN(O)C(=O)N1CCC(C(C)(C)[C@H](O)c2cc(Cl)cc3cn[nH]c23)CC1 [Compound P-0129] came out at 0.0001 to 10 µM

***
So, C#CCNC(=O)N1CCC(C(C)(C)C(O)c2cc(Cl)cc3[nH]ncc23)CC1 (centres unmarked) [Compound P-0088] ? Its IC50 was > 10 µM

Form: compound = CNC(=O)CNC(=O)N1CCC(C(C)(C)C(O)c2cc(Cl)cc3[nH]ncc23)CC1 (centres unmarked) [Compound P-0089] ; IC50 = 0.0001 to 10 µM

Measured IC50 of CC(C)(C1CCN(C(=O)NCCN2CCOCC2)CC1)[C@H](O)c1cc(Cl)cc2cn[nH]c12 [Compound P-0020] : 0.0001 to 10 µM

---

- TESTED_ON: TDO (Homo sapiens, UniProt P48775)
- Construct: His tag (N); made in house; host or cells: E. coli
- Sequence (P48775 whole entry): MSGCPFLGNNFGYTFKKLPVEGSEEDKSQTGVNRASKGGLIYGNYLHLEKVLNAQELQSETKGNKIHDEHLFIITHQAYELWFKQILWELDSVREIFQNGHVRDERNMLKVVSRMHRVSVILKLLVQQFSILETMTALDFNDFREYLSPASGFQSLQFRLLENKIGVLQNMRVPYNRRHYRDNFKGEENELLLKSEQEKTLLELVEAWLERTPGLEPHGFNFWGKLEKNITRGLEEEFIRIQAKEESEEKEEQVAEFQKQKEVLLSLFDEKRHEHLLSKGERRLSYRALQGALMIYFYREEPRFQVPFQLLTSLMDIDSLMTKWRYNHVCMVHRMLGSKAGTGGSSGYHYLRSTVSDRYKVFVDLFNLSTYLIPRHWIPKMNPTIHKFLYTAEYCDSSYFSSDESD
- ASSAY_SUMMARY: TDO enzymatic assay
- RECORDED_CONDITIONS: geometric mean; read-out: TDO GMean: IC50 (μM) (Biochemical Assay)
This listing pairs compounds with measured IC50.

Example compounds with recorded IC50:
Notebook: CC(C)(C1CCN(S(=O)(=O)C2CC2)CC1)C(O)c1cc(Cl)cc2[nH]ncc12 (centres unmarked) , IC50 read as 0.0001 to 10 µM

Record summary for CC(C)(C)OC(=O)N1CCC2(CC1)CC(O)(c1cc(Cl)cc3cn[nH]c13)C2 : reported IC50 = 0.0001 to 10 µM

Kindly note the recorded IC50 for CS(=O)(=O)N1CCC2(CC1)CC(O)(c1c(F)c(Cl)cc3cn[nH]c13)C2 , which is 0.0001 to 10 µM

// IC50 lookup, compound = N#CC1CCN(c2cc(Cl)cc3cn[nH]c23)CC1 , result: 0.0001 to 10 µM

Query CC(C)(C1CCN(C(=O)NOc2ccccc2)CC1)[C@H](O)c1cc(Cl)cc2cn[nH]c12 yields IC50 of 0.0001 to 10 µM

Summary for this compound, CC(C)(C1CCN(C(=O)N[C@H]2CCC[C@@H]2O)CC1)[C@H](O)c1cc(Cl)cc2cn[nH]c12 : IC50 is 0.0001 to 10 µM

Others:
Entry CC(C)(C1CCN(C(=O)NC2CC(F)(F)C2)CC1)C(O)c1cc(Cl)cc2[nH]ncc12 (centres unmarked) , IC50 reported as 0.0001 to 10 µM

The reported value for CS(=O)(=O)N1CC(O)(c2cc(Cl)cc3cn[nH]c23)C1 in terms of IC50 is 0.0001 to 10 µM

---

- TESTED_ON: IDO1 (Homo sapiens, UniProt P14902)
- Construct: His tag (N); made in house; host or cells: E. coli
- Sequence (P14902 whole entry): as the sequence (P14902 whole entry) above
- ASSAY_SUMMARY: IDO enzymatic assay
- Format: biochemical
- RECORDED_CONDITIONS: geometric mean; read-out: IDO1 GMean: IC50 (μM) (Biochemical Assay)
Recorded IC50 for the following compounds

// IC50 lookup, compound = CC(C)(C1CCN(C(=O)NOCc2ccccc2)CC1)[C@H](O)c1cc(Cl)cc2cn[nH]c12 , result: 0.0001 to 10 µM

Record summary for CC(C)(C1CCN(C(=O)NOCC2CC2)CC1)[C@H](O)c1cc(Cl)cc2cn[nH]c12 : reported IC50 = 0.0001 to 10 µM

response.value for CC(C)(C1CCN(C(=O)NOc2ccccc2)CC1)[C@H](O)c1cc(Cl)cc2cn[nH]c12 (field: IC50) = 0.0001 to 10 µM

Briefly, IC50 measured for CC(C)(C1CCN(C(=O)CN2CCCC2)CC1)[C@H](O)c1cc(Cl)cc2cn[nH]c12 : 0.0001 to 10 µM

IC50 reading for COCCCNC(=O)N1CCC(C(F)(F)C(=O)c2c(F)c(Cl)cc3cn[nH]c23)CC1 : 0.0001 to 10 µM

Recorded result, O=C(NC1CC(F)(F)C1)N1CCC(C(F)(F)C(=O)c2c(F)c(Cl)cc3cn[nH]c23)CC1 , IC50: 0.0001 to 10 µM

Data point: COCC(=O)N1CCC(C(F)(F)C(=O)c2c(F)c(Cl)cc3cn[nH]c23)CC1 ; IC50 = 0.0001 to 10 µM

Input O=S1(=O)CC2(CC(O)(c3cc(Cl)cc4cn[nH]c34)C2)C1 . Output IC50: 0.0001 to 10 µM

Note to self: IC50 recorded for CC(C)(C1CCN(C(=O)NCC(F)(F)F)CC1)C(O)c1cc(Cl)cc2[nH]ncc12 (stereo not drawn) was 0.0001 to 10 µM

Lab note: O=C(NCCCF)N1CCC(C(F)(F)C(=O)c2c(F)c(Cl)cc3cn[nH]c23)CC1 gave IC50 of 0.0001 to 10 µM

Short answer for CNC(=O)CNC(=O)N1CCC(C(C)(C)C(O)c2cc(Cl)cc3[nH]ncc23)CC1 (stereo not drawn) : IC50 was 0.0001 to 10 µM

The compound listed as CCS(=O)(=O)N1CCC(C(C)(C)[C@@H](O)c2cc(Cl)cc3[nH]ncc23)CC1 shows IC50 equal to 0.0001 to 10 µM

// recorded IC50 for [2H]C([2H])([2H])C(C1CCN(C(=O)CO)CC1)(C(O)c1cc(Cl)cc2cn[nH]c12)C([2H])([2H])[2H] (stereo not drawn) : 0.0001 to 10 µM

// field: IC50; key: CN(C)CCONC(=O)N1CCC(C(C)(C)[C@H](O)c2cc(Cl)cc3cn[nH]c23)CC1 ; value = 0.0001 to 10 µM

The reported IC50 of the compound CS(=O)(=O)N1CC=C(c2cc(Cl)cc3cn[nH]c23)CC1 was 0.0001 to 10 µM

The measured values listed here are drawn from patent US11149011B2.
